- Measurement target: Amine oxidase [flavin-containing] B (Rattus norvegicus, UniProt P19643)
- Sequence (P19643 whole entry): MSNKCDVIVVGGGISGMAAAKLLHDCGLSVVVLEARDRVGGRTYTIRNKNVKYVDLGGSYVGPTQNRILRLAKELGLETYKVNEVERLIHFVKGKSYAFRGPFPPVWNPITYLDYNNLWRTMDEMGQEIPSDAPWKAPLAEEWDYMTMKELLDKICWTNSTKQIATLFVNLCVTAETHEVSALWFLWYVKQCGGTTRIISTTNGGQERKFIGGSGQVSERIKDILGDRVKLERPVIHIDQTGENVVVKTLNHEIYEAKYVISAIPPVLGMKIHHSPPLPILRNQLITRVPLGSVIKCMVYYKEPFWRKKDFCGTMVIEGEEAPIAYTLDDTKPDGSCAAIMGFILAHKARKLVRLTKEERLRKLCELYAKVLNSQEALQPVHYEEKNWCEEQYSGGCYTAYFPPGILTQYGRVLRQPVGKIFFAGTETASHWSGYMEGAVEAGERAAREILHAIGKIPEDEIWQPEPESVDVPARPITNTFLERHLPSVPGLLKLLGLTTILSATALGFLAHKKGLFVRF
- Method summary: Inhibition of Monoamine oxidase B from rat liver mitochondria
Entries and their IC50
A number alone suffices; assume µM.

Nc1[nH]nc2c3cc(Br)ccc3nc-2c1-c1ccccc1 = 25.1

Continue with the molecule presented below.
Q: Dear colleague, I am looking for the recorded IC50 of the following molecule: "CCn1c2ccccc2c2nnc(N)c(-c3ccc(C(C)C)cc3)c21"
Result: 15.8

----------
Entries and their IC50
- Measurement target: Amine oxidase [flavin-containing] A (Rattus norvegicus)
- Sequence (P21396 whole entry): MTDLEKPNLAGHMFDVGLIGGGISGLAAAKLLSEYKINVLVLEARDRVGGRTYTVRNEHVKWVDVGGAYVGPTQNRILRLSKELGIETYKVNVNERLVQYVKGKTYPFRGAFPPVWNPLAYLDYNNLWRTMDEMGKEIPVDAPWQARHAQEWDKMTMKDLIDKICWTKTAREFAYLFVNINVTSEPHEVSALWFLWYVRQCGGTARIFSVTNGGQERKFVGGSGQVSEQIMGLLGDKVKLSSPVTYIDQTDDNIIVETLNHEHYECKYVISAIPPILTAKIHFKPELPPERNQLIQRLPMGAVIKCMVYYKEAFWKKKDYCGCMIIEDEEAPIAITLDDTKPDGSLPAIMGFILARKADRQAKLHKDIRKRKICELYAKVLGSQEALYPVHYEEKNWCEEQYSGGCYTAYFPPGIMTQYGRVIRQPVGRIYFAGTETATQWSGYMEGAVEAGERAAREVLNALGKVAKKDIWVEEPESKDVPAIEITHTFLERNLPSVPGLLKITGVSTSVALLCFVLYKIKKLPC
- Method summary: Inhibition of Monoamine oxidase A from rat liver mitochondria
A number alone suffices; assume µM.

// below: answered compounds
CC(C)c1ccc(-c2c(N)nnc3c4ccccc4n(CCN(C)C)c23)cc1 = 1000
Cn1c2ccccc2c2nnc(N)c(-c3ccccc3)c21 = 28.2
Cn1c2ccccc2c2nnc(N)c(-c3cccc(Br)c3)c21 = 63.1
Nc1[nH]nc2c3ccccc3nc-2c1-c1ccccc1F = 631
CN(C)c1ccc(-c2c3nc4ccccc4c-3n[nH]c2N)cc1 = 79.4
CCn1c2ccccc2c2nnc(N)c(-c3ccc(C(C)C)cc3)c21 = 100

Q: Dear colleague, I am looking for the recorded IC50 of the following compound: "Nc1[nH]nc2c3ccccc3nc-2c1-c1ccccc1Cl"
Result: 316

Q: Item: "Nc1nnc2c3ccccc3n(Cc3ccccc3)c2c1-c1ccccc1Cl"
Result: 17.8

Q: Item: "CC(C)c1ccc(-c2c3nc4ccc(Br)cc4c-3n[nH]c2N)cc1"
Result: 63

Q: Item: "Cc1ccc(-c2c3nc4ccccc4c-3n[nH]c2N)cc1"
Result: 31.6

Q: Item: "Nc1[nH]nc2c3cc(Br)ccc3nc-2c1-c1ccccc1"
Result: 63.1

Q: Item: "CC(C)c1ccc(-c2c(N)nnc3c4ccccc4n(C)c23)cc1"
Result: 14.1
